System: NCI-H226 lung
Experiment: NCI tumour cell line growth inhibition, 48 h
assay_readout: GI50

1. CC[C@H](Nc1nc(C)nc(N)c1C#N)c1nc2cccc(NCc3ccc(C(=O)NO)cc3)c2c(=O)n1-c1ccccc1 :: 1.72 µM
2. NC(N)=NCCC1OC(=O)C2=C1c1c(O)ccc3nccc(c13)O2 (stereo not given) :: 89.9 µM
3. O=C(O)c1ccc2c(c1)CCCC(c1ccc(Cl)cc1Cl)=C2c1ccc(O[C@H]2CCN(CCCF)C2)cc1 :: 10.4 µM
4. CN(C)CCCNC(=O)c1cc(NC(=O)c2cc(NC(=O)CCCn3c4ccccc4c4ccccc43)cn2C)cn1C :: 9.26 µM
5. COc1cc(-c2cn(-c3ccc(Cl)c(Cl)c3)c(=O)n2C(C)=O)cc(OC)c1OC :: 7.96 µM

Your task in this section: give GI50 for each listed record.
1. CCOc1cc(/C=N\Nc2nnc(C)n2N)c(C)cc1N(CCCl)CCCl
2. Cn1c2c(c3ccc(Cl)c(Cl)c31)C(C#N)C1(CCNCC1)NC2=O (stereo not given)
3. CCOC(=O)/C=C/C1=C(c2cccs2)c2ccccc2CC1

-- reply
1: 1.54 µM; 2: 2.24 µM; 3: 25.4 µM

Your task in this section: give GI50 for each listed record.
1. O=C1NC(=S)S/C1=C(/C=C(\CC(=O)c1ccccc1)c1ccc(Cl)cc1)c1ccccc1
2. CN1C(=O)N(C)C2C1NN=c1s/c(=C\c3ccc(F)cc3)c(=O)n12 (stereo not given)

-- reply
1. 28.5 µM
2. 8.02 µM

* * *

Test system: SK-OV-3 ovarian
Test: NCI tumour cell line growth inhibition, 48 h
assay_readout: TGI (µM)
One number for each entry, in µM.

Some solved cases for reference:
1. Cc1cc(C)c(S(=O)(=O)N(CCCN)OCCCON(CCCN)S(=O)(=O)c2c(C)cc(C)cc2C)c(C)c1 :: 3.58
2. C[C@]12CCC(=O)[C@@H](CCC3=CC(=O)C=CC3=O)[C@@H]1CCC2=O :: 63.9

Your task in this section: give TGI for each listed record.
1. N#CCCN(CCC#N)c1ccc(C(Sc2ccccc2)C(NC(=O)c2cc([N+](=O)[O-])ccc2Cl)C(=O)Sc2ccccc2)cc1 (stereo not given)
2. COC(=O)C1=C(C(=O)OC)SC(=CC#CC=C2SC(C(=O)OC)=C(C(=O)OC)S2)S1
3. COc1ccc2[nH]c(O)c(C(=Nc3ccc(N(C)C(=O)CN4CCN(C)CC4)cc3)c3ccccc3)c2c1
4. COc1ccccc1C1Nn2c(nc3ccccc3c2=O)N1c1ccc(C)cc1 (stereo not given)
5. COc1ccc(C2=NN(C=O)C(c3cccc(Nc4ccnc5cc(Cl)ccc45)c3)C2)cc1 (stereo not given)
6. CSc1cc(=O)n2c3ccccc3c3ccnc1c32
7. S=C(N/N=C\C(=N/NC(=S)N1CCCCC1)c1ccccc1)N1CCCCC1

-- reply
1. 13.2
2. 31.5
3. 9.32
4. 15.7
5. 23.3
6. 97.5
7. 3.37

Your task in this section: give TGI for each listed record.
1. O=C(O)c1ccc2c(c1)CCCC(c1ccc(Cl)cc1Cl)=C2c1ccc(O[C@H]2CCN(CCCF)C2)cc1
2. Cc1cc2c(cc1C)N(C(=O)CCl)CCN2C(=O)CCl
3. Cc1sc2nc3c4ccccc4c(NCCCN(C)C)nn3c(=O)c2c1C

-- reply
1: 30.8; 2: 3.98; 3: 26.3

Values compiled from PubChem BioAssay (NCI).
